System: Escherichia coli (ML35)
Type: cell-based
Settings: E. coli ML35; 1 × 10^7 CFU/mL; 1% TSB, 10 mM Hepes; 10, 20 and 30 μM peptide, 1 h at 37 °C; serial dilution, 18 h at 37 °C in complete TSB; turbidity; duplicate
No end group written: not given here.
measurement kind: Minimum Bactericidal Concentration (µM)
Report only the number, with the unit µM understood.

substance="RRRRPRRRRRR-NH2 [P5]" target_under_test="Escherichia coli (ML35)" measurement_kind="Minimum Bactericidal Concentration" units=µM recorded_value=28
substance="RRRWRRRRRRR-NH2 [W4]" target_under_test="Escherichia coli (ML35)" measurement_kind="Minimum Bactericidal Concentration" units=µM recorded_value=20
substance="RRRRRARRRRR-NH2 [A6]" target_under_test="Escherichia coli (ML35)" measurement_kind="Minimum Bactericidal Concentration" units=µM recorded_value=26

// query # return Minimum Bactericidal Concentration of RRRRRRRRRAR-NH2 [A10] (system: Escherichia coli (ML35))
// result 10

// query Identify measured Minimum Bactericidal Concentration obtained with Escherichia coli (ML35) for RRRRRRWRRRR-NH2 [W7] .
// result 14

// query State the measured Minimum Bactericidal Concentration (Escherichia coli (ML35)) of RRRLRRRRRRR-NH2 [L4]
// result 20

// query Answer with Minimum Bactericidal Concentration of RRRRRRRRPRR-NH2 [P9] measured for Escherichia coli (ML35).
// result 20

// query Tell me Minimum Bactericidal Concentration of RPRRRRRRRRR-NH2 [P2] when tested on Escherichia coli (ML35).
// result 30
